Provide the recorded Activity for the entries that follow.
- Test system: HaCaT
- Test details: Cytotoxicity against human HaCaT cells at 50 uM after 24 hrs by MTT assay relative to control
- Type: cell-based

Molecule	Subject of test	Activity
CCCC[C@@H](NC(=O)[C@@H](CC(C)C)NC(=O)[C@H](Cc1ccccc1)NC(=O)[C@H](CCCCN)NC(=O)[C@H](CO)NC(=O)[C@H](Cc1ccccc1)NC(=O)[C@H](Cc1c[nH]c2ccccc12)NC(=O)[C@@H]1CCCN1C(=O)[C@@H](NC(=O)[C@@H](N)Cc1ccccc1)C(C)C)C(=O)N[C@@H](CCCNC(=N)N)C(=O)NC(C(=O)N[C@@H](CC(C)C)C(N)=O)[C@@H](C)CC (single isomer, unassigned)	HaCaT	96.64%
CC[C@H](C)C(NC(=O)[C@H](CCCNC(=N)N)NC(=O)[C@@H](CCCCN)NC(=O)[C@@H](CC(C)C)NC(=O)[C@H](Cc1ccccc1)NC(=O)[C@H](CCCCN)NC(=O)[C@H](CO)NC(=O)[C@H](Cc1ccccc1)NC(=O)[C@H](Cc1c[nH]c2ccccc12)NC(=O)[C@@H]1CCCN1C(=O)[C@@H](NC(=O)[C@@H](N)Cc1ccccc1)C(C)C)C(=O)N[C@@H](CC(C)C)C(N)=O (single isomer, unassigned)	HaCaT	87.9%

Below: the item to evaluate.
Find the measured Activity of CC[C@H](C)C(NC(=O)[C@H](CCCNC(=N)N)NC(=O)[C@H](CCCCN)NC(=O)[C@@H](CC(C)C)NC(=O)[C@H](Cc1ccccc1)NC(=O)[C@H](CCCCN)NC(=O)[C@H](CO)NC(=O)[C@H](Cc1ccccc1)NC(=O)[C@H](Cc1c[nH]c2ccccc12)NC(=O)[C@@H]1CCCN1C(=O)[C@@H](NC(=O)[C@@H](N)Cc1ccccc1)C(C)C)C(=O)N[C@@H](CC(C)C)C(N)=O (single isomer, unassigned) and report it. 96.79%

* * *

Provide the recorded Activity for the entries that follow.
- System: HaCaT
- Test details: Cytotoxicity against human HaCaT cells at 25 uM after 24 hrs by MTT assay relative to control
- Type: cell-based
Where a SMILES comes first, the peptide text is derived from it. [ ]: non-standard residue; d: D form.
Give bare numbers, in %.

Worked cases, Activity given:
Compound	Activity [%]
CC[C@H](C)[C@H](NC(=O)[C@H](CCCNC(=N)N)NC(=O)[C@H](Cc1c[nH]c2ccccc12)NC(=O)[C@@H](CC(C)C)NC(=O)[C@H](Cc1ccccc1)NC(=O)[C@H](CCCCN)NC(=O)[C@H](CO)NC(=O)[C@H](Cc1ccccc1)NC(=O)[C@H](Cc1c[nH]c2ccccc12)NC(=O)[C@@H]1CCCN1C(=O)[C@@H](NC(=O)[C@@H](N)Cc1ccccc1)C(C)C)C(=O)N[C@@H](CC(C)C)C(N)=O (H-FVPWFSKF[dL]WRIL-NH2)	32.1
CCCC[C@H](NC(=O)[C@@H](CC(C)C)NC(=O)[C@H](Cc1ccccc1)NC(=O)[C@H](CCCCN)NC(=O)[C@H](CO)NC(=O)[C@H](Cc1ccccc1)NC(=O)[C@H](Cc1c[nH]c2ccccc12)NC(=O)[C@@H]1CCCN1C(=O)[C@@H](NC(=O)[C@@H](N)Cc1ccccc1)C(C)C)C(=O)N[C@@H](CCCNC(=N)N)C(=O)NC(C(=O)N[C@@H](CC(C)C)C(N)=O)[C@@H](C)CC (single isomer, unassigned)	65.86

Below: the item to evaluate.
Find the measured Activity of CC[C@H](C)C(NC(=O)[C@H](CCCNC(=N)N)NC(=O)[C@H](CCCCN)NC(=O)[C@@H](CC(C)C)NC(=O)[C@H](Cc1ccccc1)NC(=O)[C@H](CCCCN)NC(=O)[C@H](CO)NC(=O)[C@H](Cc1ccccc1)NC(=O)[C@H](Cc1c[nH]c2ccccc12)NC(=O)[C@@H]1CCCN1C(=O)[C@@H](NC(=O)[C@@H](N)Cc1ccccc1)C(C)C)C(=O)N[C@@H](CC(C)C)C(N)=O (single isomer, unassigned) and report it. 66.86
